Source: patent US8426408B2

- targetEntity: KDR (Homo sapiens)
- Sequence (P35968 20-1356): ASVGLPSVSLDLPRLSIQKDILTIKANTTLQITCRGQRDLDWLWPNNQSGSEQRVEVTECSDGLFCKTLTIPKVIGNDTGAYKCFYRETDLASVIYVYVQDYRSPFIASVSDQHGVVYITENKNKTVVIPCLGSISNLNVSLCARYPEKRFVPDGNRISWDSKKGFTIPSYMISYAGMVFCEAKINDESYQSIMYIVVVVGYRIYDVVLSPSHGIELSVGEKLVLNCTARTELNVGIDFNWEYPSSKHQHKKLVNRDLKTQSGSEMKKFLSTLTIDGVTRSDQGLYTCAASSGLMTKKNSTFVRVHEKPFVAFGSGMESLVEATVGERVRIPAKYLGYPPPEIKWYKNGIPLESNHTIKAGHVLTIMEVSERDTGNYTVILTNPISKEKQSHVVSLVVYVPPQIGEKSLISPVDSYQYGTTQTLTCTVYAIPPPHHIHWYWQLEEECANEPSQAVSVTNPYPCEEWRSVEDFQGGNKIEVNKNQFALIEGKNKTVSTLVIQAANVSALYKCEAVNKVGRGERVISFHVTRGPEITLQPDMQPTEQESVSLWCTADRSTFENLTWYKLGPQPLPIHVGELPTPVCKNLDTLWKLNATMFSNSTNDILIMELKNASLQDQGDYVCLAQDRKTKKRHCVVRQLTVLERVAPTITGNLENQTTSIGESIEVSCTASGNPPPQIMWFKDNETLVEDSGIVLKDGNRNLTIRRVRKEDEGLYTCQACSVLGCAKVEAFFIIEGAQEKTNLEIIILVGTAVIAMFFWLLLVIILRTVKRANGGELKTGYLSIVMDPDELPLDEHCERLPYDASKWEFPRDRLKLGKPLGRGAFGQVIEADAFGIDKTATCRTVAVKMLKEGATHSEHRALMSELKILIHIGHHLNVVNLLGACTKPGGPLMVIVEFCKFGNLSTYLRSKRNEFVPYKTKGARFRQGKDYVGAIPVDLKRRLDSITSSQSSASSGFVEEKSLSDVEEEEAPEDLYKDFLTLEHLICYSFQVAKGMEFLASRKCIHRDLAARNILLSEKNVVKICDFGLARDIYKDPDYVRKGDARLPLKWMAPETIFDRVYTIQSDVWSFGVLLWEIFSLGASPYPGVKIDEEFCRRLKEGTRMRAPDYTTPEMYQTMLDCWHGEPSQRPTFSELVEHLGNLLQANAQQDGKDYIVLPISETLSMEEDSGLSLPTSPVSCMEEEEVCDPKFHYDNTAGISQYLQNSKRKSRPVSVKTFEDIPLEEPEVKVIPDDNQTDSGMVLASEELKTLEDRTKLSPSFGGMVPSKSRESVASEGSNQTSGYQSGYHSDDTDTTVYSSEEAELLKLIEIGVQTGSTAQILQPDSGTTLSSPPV
- assayMethodText: KDR cellular assay (KDR receptor phosphorylation ELISA)
- settings: KDR transfected 3T3 (embryonic mouse) cells, VEGF stimulated; read-out: IC50 inhibition of KDR phosphorylation
quantity: IC50

See these solved cases before continuing.
Cn1cc(Nc2ncc(C(F)(F)F)c(N[C@@H]3[C@H](C(N)=O)[C@H]4C=C[C@@H]3C4)n2)cn1.Cn1cc(Nc2ncc(C(F)(F)F)c(N[C@H]3[C@@H](C(N)=O)[C@@H]4C=C[C@H]3C4)n2)cn1 (mixture of isomers)    < 100 nM
CCn1cc(Nc2ncc(Cl)c(NC3C4CCC(O4)C3C(N)=O)n2)cn1 (racemic)    100 to 1000 nM
COc1cccc(Cn2cc(Nc3ncc(Cl)c(N[C@H]4[C@@H](C(N)=O)[C@@H]5C=C[C@H]4C5)n3)cn2)c1    < 100 nM
CN1CCC(Cn2cc(Nc3ncc(Cl)c(N[C@H]4[C@@H](C(N)=O)[C@@H]5C=C[C@H]4C5)n3)cn2)CC1    < 100 nM
NC(=O)[C@@H]1[C@H](Nc2nc(Nc3cnn(-c4ccccc4)c3)ncc2Br)[C@H]2C=C[C@@H]1C2    < 100 nM

Take each entry in turn and give its IC50.
1. Cn1cc(Nc2ncc(C(F)(F)F)c(Nc3ccccc3C3(O)CNC3)n2)cn1
2. CCn1cc(Nc2ncc(Cl)c(N[C@@H]3[C@@H]4CC[C@@H](C4)[C@@H]3C(N)=O)n2)cn1.CCn1cc(Nc2ncc(Cl)c(N[C@H]3[C@H]4CC[C@H](C4)[C@H]3C(N)=O)n2)cn1 (mixture of isomers)
3. NC(=O)[C@@H]1[C@H](Nc2nc(Nc3cnn(Cc4ccc(Cl)cc4)c3)ncc2Br)[C@H]2C=C[C@@H]1C2
4. CN1CCN(CCn2cc(Nc3ncc(Br)c(N[C@H]4[C@@H](C(N)=O)[C@@H]5C=C[C@H]4C5)n3)cn2)CC1
5. COCCn1cc(Nc2ncc(Br)c(N[C@H]3[C@@H](C(N)=O)[C@@H]4C=C[C@H]3C4)n2)cn1
6. CC(O)Cn1cc(Nc2ncc(C(F)(F)F)c(NC3C4CCC(C4)C3C(N)=O)n2)cn1 (mixture of isomers)
7. Cn1cc(Nc2ncc(Cl)c(Nc3ccccc3CO)n2)cn1
8. Cc1nn(C)c(C)c1Nc1ncc(Br)c(N[C@H]2[C@@H](C(N)=O)[C@@H]3C=C[C@H]2C3)n1

1. 100 to 1000 nM
2. 100 to 1000 nM
3. < 100 nM
4. < 100 nM
5. < 100 nM
6. 100 to 1000 nM
7. 100 to 1000 nM
8. 100 to 1000 nM

Take each entry in turn and give its IC50.
1. Cn1cc(Nc2ncc(Cl)c(Nc3ccccc3C3(O)CCC3)n2)cn1
2. Cc1c(Nc2ncc(Cl)c(N[C@H]3[C@@H](C(N)=O)C[C@H]4C[C@@H]3C4(C)C)n2)cnn1C
3. CCn1cc(Nc2ncc(C(F)(F)F)c(N[C@H]3[C@@H](C(N)=O)C[C@H]4C[C@@H]3C4(C)C)n2)cn1

1. 100 to 1000 nM
2. 100 to 1000 nM
3. 100 to 1000 nM
